# tested-system: T1, IL-2 receptor βγ complex (human, UniProt P14784 27-551; P31785 23-369)
# T1 sequence (looked up) 1: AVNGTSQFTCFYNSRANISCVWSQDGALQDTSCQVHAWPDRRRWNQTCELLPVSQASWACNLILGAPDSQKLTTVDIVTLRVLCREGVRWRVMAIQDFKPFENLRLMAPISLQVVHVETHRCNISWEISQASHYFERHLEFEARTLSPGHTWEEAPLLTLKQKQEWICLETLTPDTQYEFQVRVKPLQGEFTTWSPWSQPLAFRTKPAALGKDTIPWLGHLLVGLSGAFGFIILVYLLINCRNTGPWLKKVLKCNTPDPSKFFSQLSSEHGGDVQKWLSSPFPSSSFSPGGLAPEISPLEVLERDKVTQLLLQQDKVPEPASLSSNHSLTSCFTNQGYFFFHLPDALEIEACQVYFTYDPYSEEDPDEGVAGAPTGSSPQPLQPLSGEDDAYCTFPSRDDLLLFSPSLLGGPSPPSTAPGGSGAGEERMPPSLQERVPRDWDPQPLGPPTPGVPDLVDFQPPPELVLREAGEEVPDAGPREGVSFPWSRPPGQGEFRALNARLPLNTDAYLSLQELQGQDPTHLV
# T1 sequence (looked up) 2: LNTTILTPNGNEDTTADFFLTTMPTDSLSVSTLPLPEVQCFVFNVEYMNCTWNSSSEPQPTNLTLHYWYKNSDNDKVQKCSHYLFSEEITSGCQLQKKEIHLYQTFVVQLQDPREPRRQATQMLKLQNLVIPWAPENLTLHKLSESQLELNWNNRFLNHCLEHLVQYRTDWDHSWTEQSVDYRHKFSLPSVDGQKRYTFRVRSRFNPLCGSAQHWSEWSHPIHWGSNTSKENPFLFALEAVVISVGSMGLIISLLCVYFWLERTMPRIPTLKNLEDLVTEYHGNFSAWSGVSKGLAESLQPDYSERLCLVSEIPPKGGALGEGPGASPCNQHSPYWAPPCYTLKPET
# assay-explanation: cell-based or functional assay
Bridges are numbered along the chain shown (N, C = ends). Primed or numbered codes have the meaning given here. [ ]: non-standard residue; d: D form. 8x polyethylene glycol‑amino = O-(8x polyethylene glycol-amino)-tyrosine, SITE 45; 9x polyethylene glycol‑azido = O-(9x polyethylene glycol-azido)-tyrosine, SITE 42; Ygp″ = O-(8x polyethylene glycol-amino)-tyrosine; Yn3″ = O-(9x polyethylene glycol-azido)-tyrosine; hSer = N[C@@H](CCO)C(=O)O; Nle = CCCC[C@H](N)C(=O)O
property-measured: Average EC50, pSTAT5 Assay in NK cells (nM)
Answers are plain numbers, in nM.

binder	observed-value
CMP-329, MMP2 cleaved molecule (ligand, ends and bridges not checked; also: after MMP2 cleavage, remnants of the Lys9–Glu23 peptide linker not given here) APTSSSTKKTQLQLEHLLLDLQEILNGINNYKNPKLTR[Nle]L[hSer][Yn3″]KF[Ygp″][Nle]PKKATELKHLQCLEEELKPLEEVL[hSer]LAQSKNFHLRPRDLISNINVIVLELKGSETTF[hSer]CEYADETATIVEFLNRWITFSQSIISTLT	0.687

Attention now turns to another entry.
// Average EC50, pSTAT5 Assay in NK cells lookup, binder = CMP-331 (ligand, bridge N-23; not fully specified (bridges)) APTSSSTKKTQLQLEHLLLDLQKILNGINNYKNPKLTR[Nle]L[hSer]Y(9x polyethylene glycol‑azido)KFY(8x polyethylene glycol‑amino)[Nle]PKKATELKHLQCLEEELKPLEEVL[hSer]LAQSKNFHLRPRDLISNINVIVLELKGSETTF[hSer]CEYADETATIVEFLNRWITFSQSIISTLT , result: 6.59
